biological target: tetanus neurotoxin (TeNT), authentic tetanus holotoxin (Clostridium tetani, UniProt P04958 2-1315); experiment: competition ELISA on TeNT, binder biotinylated; competitor SVT13L; further: test concentration or dose not given here
Sequence (P04958 2-457 limits assumed, chain 1 of 2): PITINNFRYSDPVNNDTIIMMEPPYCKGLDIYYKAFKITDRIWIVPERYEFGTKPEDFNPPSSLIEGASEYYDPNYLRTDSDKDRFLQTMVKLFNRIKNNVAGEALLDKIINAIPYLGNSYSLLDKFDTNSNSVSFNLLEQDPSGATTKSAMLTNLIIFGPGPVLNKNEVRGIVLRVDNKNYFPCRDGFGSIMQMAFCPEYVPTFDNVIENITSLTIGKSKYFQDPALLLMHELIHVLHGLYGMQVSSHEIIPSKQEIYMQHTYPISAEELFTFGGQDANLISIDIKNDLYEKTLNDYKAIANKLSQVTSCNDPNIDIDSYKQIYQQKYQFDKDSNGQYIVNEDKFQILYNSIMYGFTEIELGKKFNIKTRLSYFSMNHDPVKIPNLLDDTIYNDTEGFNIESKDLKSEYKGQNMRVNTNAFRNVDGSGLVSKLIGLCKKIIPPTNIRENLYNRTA
Sequence (P04958 458-1315 limits assumed, chain 2 of 2): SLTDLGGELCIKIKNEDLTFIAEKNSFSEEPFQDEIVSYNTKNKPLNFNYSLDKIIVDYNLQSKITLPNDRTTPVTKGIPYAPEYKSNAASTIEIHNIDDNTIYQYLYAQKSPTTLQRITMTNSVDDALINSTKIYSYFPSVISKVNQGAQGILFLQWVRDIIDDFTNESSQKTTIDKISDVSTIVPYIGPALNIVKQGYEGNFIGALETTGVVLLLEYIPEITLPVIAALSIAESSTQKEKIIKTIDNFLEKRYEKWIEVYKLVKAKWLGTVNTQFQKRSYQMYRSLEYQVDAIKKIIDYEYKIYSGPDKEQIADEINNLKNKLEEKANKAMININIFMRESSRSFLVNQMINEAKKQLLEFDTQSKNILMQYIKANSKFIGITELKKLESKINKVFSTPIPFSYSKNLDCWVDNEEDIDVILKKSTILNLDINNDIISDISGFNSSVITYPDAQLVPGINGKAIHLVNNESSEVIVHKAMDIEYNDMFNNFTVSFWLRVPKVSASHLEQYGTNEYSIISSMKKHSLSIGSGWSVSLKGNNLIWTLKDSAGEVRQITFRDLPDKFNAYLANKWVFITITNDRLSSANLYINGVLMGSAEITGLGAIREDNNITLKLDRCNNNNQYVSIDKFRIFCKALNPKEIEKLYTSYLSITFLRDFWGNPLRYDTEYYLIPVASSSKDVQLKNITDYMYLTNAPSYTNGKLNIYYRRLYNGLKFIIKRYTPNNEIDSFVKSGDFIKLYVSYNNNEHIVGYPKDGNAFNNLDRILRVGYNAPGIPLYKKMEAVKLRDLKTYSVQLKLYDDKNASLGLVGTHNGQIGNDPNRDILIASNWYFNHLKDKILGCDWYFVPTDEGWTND
measure: % inhibition of binding (%)
Answers are plain numbers, in %.

So for SVT16L (VHH) VHH: QVQLQESGGGSVQAGDSLRLSCAASGRTISNYAMGWFRQAPGKQREFVAAISRSDNTYYTDSVKGRFTISRDNAKNTLYLQMNSLKPEETAVYYCAADPNLMYESKWKYRALEAWGQGTLVTVSS , the logged % inhibition of binding turned out to be 96
